Assay: Liver microsome metabolic stability test, human
Format: in vitro ADME
Settings: 60 min
MEASURED_ATTRIBUTE: %Remaining (60 min) (%)
One number for each entry, in %.

The cases that follow already have their %Remaining (60 min) on record.
# COMPOUND, READING
measured = [
    ("Nc1nccn2c(C34CCC(CO)(CC3)OC4)nc(-c3ccc(C(F)(F)c4ccccc4)cc3)c12", 61.2),
    ("COc1cccc(Oc2ccc(-c3nc(C4CCC(CO)OC4)n4ccnc(N)c34)cc2)c1C#N (single isomer, unassigned) [Compound 89-P1]", 100.4),
    ("Nc1nccn2c([C@@H]3CC[C@H](CO)OC3)nc(-c3ccc(C(=O)Nc4ccccn4)cc3)c12 (single isomer, unassigned) [Compound 2-A-P1]", 122.5),
    ("Nc1nccn2c(C3CCC(CO)OC3)nc(-c3ccc(Oc4ccccc4)cc3)c12 (stereo not shown)", 31.8),
    ("COc1cccc(Oc2ccc(-c3nc(C4CCC(CO)OC4)n4c(Cl)cnc(N)c34)cc2)c1F (stereo not shown)", 2.6),
]

Field: %Remaining (60 min). Fill in for each record below.
1. Nc1nccn2c(C34CCC(CO)(CC3)OC4)nc(-c3ccc(C(=O)Nc4ccccn4)cc3)c12
2. CC#CC(=O)N1CC[C@@H](n2c(=O)n(-c3ccc(Oc4ccccc4)cc3)c3c(N)ncnc32)C1 [Tirabrutinib, reference compound]

*A*
1. 112.0
2. 66.3

###

Test: Pharmacokinetic test, oral, SD rats
Format: in vivo
Details: rat, oral 10 mg/kg, plasma, read-out: Cmax
Provide the reported Cmax of each item.
Numbers only, in ng/mL.

Worked cases, Cmax given:
# COMPOUND, UNITS, Cmax
rows = [
    ("COc1cccc(Oc2ccc(-c3nc(C4CCC(CO)OC4)n4ccnc(N)c34)cc2)c1F (stereo not shown)", "ng/mL", 463),
    ("COc1cccc(Oc2ccc(-c3nc(C45CCC(CO)(CC4)OC5)n4ccnc(N)c34)cc2)c1C#N", "ng/mL", 858),
    ("COc1cccc(Oc2ccc(-c3nc(C4CCC(CO)OC4)n4ccnc(N)c34)cc2)c1C(F)(F)F (stereo not shown)", "ng/mL", 663),
]

Turning now to a further compound:
*Q* Which value of Cmax has been reported for Cc1cc(Nc2ncnc3ccc(NC4=NC(C)(C)CO4)cc23)ccc1Oc1ccn2ncnc2c1 [Tucatinib, reference compound] in the records?
*A* 445

###

Assay: Liver microsome metabolic stability test, human
Type: in vitro ADME
Conditions: 60 min
Mark 1 for %Remaining (60 min) under 80%, 0 if at or over.

# MOLECULE, ASSIGNED_CLASS
rows = [
    ("Nc1nccn2c(C3CCC(CO)OC3)nc(-c3ccc(Oc4c(F)cccc4F)cc3)c12 (stereo not shown) [Compound 64]", 1),
    ("Nc1nccn2c(C3CC[C@@H](CO)OC3)nc(-c3ccc(C(=O)Nc4ccccn4)cc3F)c12 (stereo partly shown) [Compound 1-B]", 0),
    ("COc1cccc(Oc2ccc(-c3nc(C4CCC(CO)OC4)n4ccnc(N)c34)cc2)c1F (stereo not shown) [Compound 5]", 1),
]

*Q* API: query returns whether the molecule falls strictly under 80% in %Remaining (60 min). Query: Nc1nccn2c(C34CCC(CO)(CC3)OC4)nc(-c3ccc(C(=O)Nc4cc(C(F)(F)F)ccn4)cc3)c12 [Compound 118]
*A* 1

*Q* Report whether reported %Remaining (60 min) is lower than 80% (strictly) for Nc1nccn2c(C3CCC(CO)OC3)nc(-c3ccc(C(=O)Nc4cc(C(F)(F)F)ccn4)cc3)c12 (single isomer, unassigned) [Compound 109-P1]
*A* 0

*Q* Quick check: %Remaining (60 min) of Nc1nccn2c(C3CCC(CO)OC3)nc(-c3ccc(C(F)(F)c4ccccc4)cc3)c12 (stereo not shown) [Compound 111] under 80%?
*A* 1

*Q* Please indicate whether the reported %Remaining (60 min) of Cc1cccc(Oc2ccc(-c3nc(C4CCC(CO)OC4)n4ccnc(N)c34)cc2)c1F (stereo not shown) [Compound 24] is strictly below 80%.
*A* 1

###

Molecular target: BTK mutation-type C481S kinase (Homo sapiens (Human), UniProt Q06187, C481S)
Sequence (Q06187 whole entry C481S): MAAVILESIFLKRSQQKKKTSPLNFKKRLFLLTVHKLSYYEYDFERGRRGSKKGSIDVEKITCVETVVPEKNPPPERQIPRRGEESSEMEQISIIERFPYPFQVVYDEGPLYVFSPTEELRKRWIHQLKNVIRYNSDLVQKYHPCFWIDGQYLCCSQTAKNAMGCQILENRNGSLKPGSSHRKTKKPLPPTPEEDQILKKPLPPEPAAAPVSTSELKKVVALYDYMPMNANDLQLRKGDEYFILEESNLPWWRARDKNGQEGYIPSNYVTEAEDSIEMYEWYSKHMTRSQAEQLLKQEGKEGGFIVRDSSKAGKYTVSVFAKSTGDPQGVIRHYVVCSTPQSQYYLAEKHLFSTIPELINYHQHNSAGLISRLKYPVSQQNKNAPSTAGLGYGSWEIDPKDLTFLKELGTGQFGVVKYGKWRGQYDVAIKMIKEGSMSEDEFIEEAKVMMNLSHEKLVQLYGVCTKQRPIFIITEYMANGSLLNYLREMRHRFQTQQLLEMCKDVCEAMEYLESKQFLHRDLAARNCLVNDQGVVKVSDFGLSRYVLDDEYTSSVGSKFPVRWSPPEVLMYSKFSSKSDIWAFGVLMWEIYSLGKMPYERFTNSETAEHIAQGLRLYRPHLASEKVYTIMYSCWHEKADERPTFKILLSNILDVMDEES
Assay: BTK-C481S kinase activity inhibition test in vitro (Caliper EZ Reader)
pIC50: −log10 of the molar value.
Task for the reader: assign each of the following compounds its reported pIC50.

Study these solved cases before continuing.
# COMPOUND, MEASURED_ATTRIBUTE, READING
records = [
    ("COc1cccc(Oc2ccc(-c3nc(C4CCC(CO)OC4)n4ccnc(N)c34)cc2)c1F (centres unmarked) [Compound 5]", "pIC50", "> 8.30"),
    ("Nc1nccn2c(C3CCC(CO)OC3)nc(-c3ccc(C(F)(F)c4ccccc4)cc3)c12 (single isomer, unassigned) [Compound 111-P1]", "pIC50", "> 8.30"),
    ("Nc1nccc2c1n(-c1ccc(Oc3ccccc3)cc1)c(=O)n2C1CCC(CO)OC1 (centres unmarked) [Compound 120]", "pIC50", "7.70 to 8.30"),
    ("Nc1nccn2c(C3CCC(CO)OC3)nc(-c3ccc(Oc4ccccc4)cc3F)c12 (centres unmarked) [Compound 17]", "pIC50", "7.70 to 8.30"),
]

For every item below, please supply its pIC50.
1. Nc1nccn2c(C34CCC(CO)(CC3)OC4)nc(-c3ccc(C(=O)Nc4ccccn4)cc3)c12 [Compound 34]
2. Nc1nccn2c(C34CCC(CO)(CC3)OC4)nc(-c3ccc(C(=O)Nc4cc(C(F)(F)F)ccn4)cc3)c12 [Compound 118]
3. Nc1nccn2c(C3CCC(CO)OC3)nc(-c3ccc(C(F)(F)c4cc(C(F)(F)F)ccn4)cc3)c12 (centres unmarked) [Compound 124]
4. COc1cccc(C(F)(F)c2ccc(-c3nc(C4CCC(CO)OC4)n4ccnc(N)c34)cc2)c1 (centres unmarked) [Compound 121]

*A*
["7.70 to 8.30", "> 8.30", "6.00 to 7.00", "7.70 to 8.30"]

###

Experiment: Liver microsome metabolic stability test, human
Format: in vitro ADME
Conditions: 60 min
MEASURED_ATTRIBUTE: %Remaining (60 min)
Form field: result (number plus unit)

Answered cases to consult:
# MOLECULE, %Remaining (60 min)
measured = [
    ("COc1ccccc1C(=O)NCc1ccc(-c2nn(C3CCC(CO)OC3)c3ncnc(N)c23)cc1 (stereo not shown)", "109.9%"),
    ("COc1cccc(Oc2ccc(-c3nc(C4CCC(CO)OC4)n4ccnc(N)c34)cc2)c1 (stereo not shown)", "81.1%"),
    ("Cc1cc(Nc2ncnc3ccc(NC4=NC(C)(C)CO4)cc23)ccc1Oc1ccn2ncnc2c1 [Tucatinib, reference compound]", "28.8%"),
]

Go through the items and report each one's %Remaining (60 min).
1. Cc1ccnc(NC(=O)c2ccc(-c3nc(C4CCC(CO)OC4)n4ccnc(N)c34)cc2)c1 (stereo not shown)
2. Nc1nccn2c(C34CCC(CO)(CC3)OC4)nc(-c3ccc(C(F)(F)c4ccccc4Cl)cc3)c12
3. Nc1nccn2c(C3CCC(CO)OC3)nc(-c3ccc(Oc4cccc(F)c4F)cc3)c12 (stereo not shown)
4. Nc1nccn2c(C34CCC(CO)(CC3)OC4)nc(-c3ccc(C(F)(F)c4cccc(Cl)c4F)cc3)c12

*A*
77.7%
25.8%
37.4%
25.4%

###

Would you mind telling me the reported IC50 of each entry?
Target: BTK mutation-type C481S kinase (Homo sapiens (Human), UniProt Q06187, C481S)
Assay: BTK-C481S kinase activity inhibition test in vitro (Caliper EZ Reader)

Would you please look over these solved cases?
# COMPOUND, TARGET_OR_SYSTEM, READING
records = [
    ("Nc1nccn2c(C34CCC(CO)(CC3)OC4)nc(-c3ccc(C(F)(F)c4ccccc4)cc3)c12 [Compound 125]", "BTK mutation-type C481S kinase (Homo sapiens (Human), UniProt Q06187, C481S)", "< 5 nM"),
    ("Nc1nccn2c(C3CCC(CO)OC3)nc(-c3ccc(C(=O)Nc4cc(C(F)(F)F)ccn4)cc3)c12 (single isomer, unassigned) [Compound 109-P1]", "BTK mutation-type C481S kinase (Homo sapiens (Human), UniProt Q06187, C481S)", "< 5 nM"),
    ("COc1cccc(Oc2ccc(-c3nc(C4CCC(CO)OC4)n4ccnc(N)c34)cc2)c1C#N (single isomer, unassigned) [Compound 89-P1]", "BTK mutation-type C481S kinase (Homo sapiens (Human), UniProt Q06187, C481S)", "< 5 nM"),
]

Give IC50 for each listed item.
1. Nc1cccc(NC(=O)c2ccc(-c3nc([C@@H]4CC[C@@H](CO)OC4)n4ccnc(N)c34)cc2)n1 (single isomer, unassigned) [Compound 2-A-P2]
2. Nc1nccn2c(C3CC[C@@H](CO)OC3)nc(-c3ccc(C(=O)Nc4ccccn4)cc3F)c12 (stereo partly drawn) [Compound 1-B]
3. Nc1nccn2c(C3CCC(CO)OC3)nc(-c3ccc(C(F)(F)c4ccccc4)cc3)c12 (stereo not drawn) [Compound 111]
4. Nc1nccn2c(C3CCC(CO)OC3)nc(-c3ccc(Cc4ccccc4)cc3)c12 (stereo not drawn) [Compound 106]
5. N#Cc1ccnc(NC(=O)c2ccc(-c3nc(C4CCC(CO)OC4)n4ccnc(N)c34)cc2)c1 (stereo not drawn) [Compound 103]
6. Nc1nccn2c(C3CCC(CO)OC3)nc(-c3ccc(C(=O)c4ccccc4)cc3)c12 (stereo not drawn) [Compound 26]
7. Nc1nccn2c(C3CCC(CO)OC3)nc(-c3ccc(Oc4cccc(F)c4F)cc3)c12 (stereo not drawn) [Compound 8]

*A*
1. 20 to 100 nM
2. 5 to 20 nM
3. < 5 nM
4. < 5 nM
5. < 5 nM
6. 5 to 20 nM
7. < 5 nM

Report IC50 for each item below.
1. [2H]C([2H])([2H])Oc1cccc(Oc2ccc(-c3nc(C4CCC(CO)OC4)n4ccnc(N)c34)cc2)c1F (stereo not drawn) [Compound 7]
2. Nc1nccn2c([C@@H]3CC[C@H](CO)OC3)nc(-c3ccc(C(=O)Nc4ccccn4)cc3)c12 (single isomer, unassigned) [Compound 2-A-P1]

*A*
< 5 nM
< 5 nM
